- System: SK-MEL-5 melanoma
- TEST_DETAILS: NCI-60 one-dose screen, 48 h (100 = growth as untreated, 0 = no growth, -100 = all killed)
- CONDITION_CONTEXT: 10 µM unless noted
About 83,000 compounds went through this panel and 20% of them were active in at least one assay; those are over-represented in the sample as a whole. Activity calls are given as the source filed them. The calls were made as follows: active = growth percent below 10; inactive = the rest.

# COMPOUND, SYSTEM, growth
measured = [
    ("CCOc1ccc(/C=C(\\C#N)c2cc3ccccc3[nH]2)cc1", "SK-MEL-5 melanoma", "72.2% (inactive)"),
    ("COc1ccc2[nH]c(C(=O)N3CCN(C(=O)OCc4ccc5c(Br)cc(Br)c(O)c5n4)CC3)cc2c1", "SK-MEL-5 melanoma", "-99% (active)"),
    ("C=C(C)C1CCC2(C(=O)O)CCC3(C)C(CCC4C5(C)CCC(OC(=O)NCc6ccccc6)C(C)(C)C5CCC43C)C12 (configuration not stated)", "SK-MEL-5 melanoma", "28.4% (inactive)"),
    ("C=C(C)[C@@H]1CC[C@]2(C)[C@H](C(=O)C=C3[C@@H]4C[C@](C)(C(=O)N5CCN(C)CC5)CC[C@]4(C)CC[C@]32C)[C@@]1(C)CCC#N", "SK-MEL-5 melanoma", "-94.6% [100 µM] (active)"),
    ("CCOC(=O)c1cc(C#N)n2ncc3ccccc3c12", "SK-MEL-5 melanoma", "98% (inactive)"),
    ("C[C@@H]1C[C@H]2C(=O)O[C@@H](C)[C@H](NC(=O)[C@H](Cc3cc(F)cc(F)c3)NC(=O)Nc3ccc(Cl)cc3F)C(=O)N3C[C@H](O)C[C@H]3C(=O)N3CCN(C)C[C@H]3C(=O)N[C@@H](C)C(=O)N2C1", "SK-MEL-5 melanoma", "64.6% (inactive)"),
    ("O=C(NCc1ccc(Cn2c(=O)sn(-c3ccccc3)c2=O)cc1)OCc1ccc2c(Br)cc(Br)c(O)c2n1", "SK-MEL-5 melanoma", "-97.4% (active)"),
]

###

- Tested on: K-562 leukemia
- TEST_DETAILS: NCI-60 one-dose screen, 48 h (100 = growth as untreated, 0 = no growth, -100 = all killed)
- CONDITION_CONTEXT: 10 µM unless noted
This is part of a sample that, as a whole, favours compounds with a hit. Of some 83,000 tested, about 20% had one in any assay.
ENDPOINT_NAME: growth (%)

# COMPOUND, MEASURED_VALUE
data = [
    ("Fc1cc2[nH]ncc2c2c3c(c(-c4cn[nH]c4C(F)(F)F)nc12)C1CCC3C1 (stereo not given)", 19.4),
    ("Cc1ccc2c(n1)C(=O)C(Cl)=C(Nc1ccc(N3CCN(C)CC3)cc1)C2=O", -12.3),
    ("CS(=O)(=O)c1cccnn1", 84.3),
    ("ClC1=C(Cl)C(Cl)=C(Cl)C1=Cc1ccccc1", 1.01),
    ("COC(=O)[C@H](CC(C)C)NC(=O)NC(=O)NC(=O)CI", 2.16),
    ("CSc1nc2c(c(=O)n1C)C1(C(=O)N(Cc3ccccc3)c3ccccc31)c1c(nc(SC)n(C)c1=O)N2", 89.8),
    ("c1ccc(-c2nc(N3CCCNCC3)c3nc(-c4ccccc4)oc3n2)cc1", 0.76),
    ("CCOC(CNC(=O)c1cccc([N+](=O)[O-])c1)OCC", 94),
    ("COc1c(C(C)=O)c(OCCCCOc2c(C(C)=O)c(OC)c3ccoc3c2OC)c(OC)c2occc12", 54.3),
    ("O=S(=O)(/N=c1/n(-c2ccccc2)nc2n1CCN2C1=NCCN1)c1ccc(-c2ccccc2)cc1", 88.6),
]

###

- System: HOP-92 NSCLC
- TEST_DETAILS: NCI-60 one-dose screen, 48 h
- CONDITION_CONTEXT: 10 µM unless noted
About 83,000 compounds went through this panel and 20% of them were active in at least one assay; those are over-represented in the sample as a whole. Calls of active or inactive are those of the source. How the source made its calls: active means growth percent below 10; inactive means the rest.
Outcome codes: active, inactive

# MOLECULE, DISCRETE_LABEL
rows = [
    ("Nc1cc(NN=C(c2ccc(O)cc2)c2ccc(O)cc2)c([N+](=O)[O-])cc1[N+](=O)[O-]", "inactive"),
    ("COc1cc(NCc2cn(-c3ccc(C(=O)O)cc3)nc2-c2ccc(C(=O)O)cc2)cc(OC)c1OC", "inactive"),
    ("CCOC(=O)C1=C(C(=O)c2ccc(Br)cc2)C(c2ccc(Br)cc2)NC(=S)N1 (centres undefined)", "inactive"),
    ("O=S(=O)(NCc1ccccc1)c1ncnc2nc[nH]c12", "inactive"),
    ("CC[C@@](C)(NC(=O)[C@H](C)NC(=O)CCNC(=O)C(C)(C)NC(=O)[C@H](C)NC(=O)[C@@H]1CCCN1C(=O)[C@@](C)(CC)NC(=O)[C@H](Cc1ccccc1)NC(=O)C1CCCN1C(=O)C(C)(C)NC(=O)C1CCCN1C(=O)C(C)(C)NC(C)=O)C(=O)NCCC(=O)N[C@@H](CC(C)C)C(=O)NC(C)(C)C(=O)NCCC(=O)N[C@@H](CC(C)C)C(=O)NC(C)(C)C(=O)NC(C)(C)C(=O)N[C@@H](CC(C)C)C(=O)NCCC(=O)NCO (some centres undefined)", "active"),
    ("c1ccc2c(c1)CN(CCCN1CCOCC1)C2", "inactive"),
    ("CC(C)(C)c1cc(C(=O)Nc2ccccc2C(=O)NCCN)cc(C(C)(C)C)c1", "inactive"),
    ("C=C(C)[C@@H]1CC[C@]2(C(=O)OC)CC[C@]3(C)[C@H](CC[C@@H]4[C@@](C)(CCc5nn[nH]n5)[C@H](C(=C)C)CC[C@]43C)[C@@H]12", "active"),
    ("CCN(CC)c1cc(N)c(Cc2c(N)cc(N(CC)CC)cc2Cl)c(Cl)c1", "inactive"),
]

###

- Test system: SN12C renal
- TEST_DETAILS: NCI-60 one-dose screen, 48 h
- CONDITION_CONTEXT: 10 µM unless noted
- Method: Growth inhibition of the SN12C human tumor cell line is measured as a screen for anti-cancer activity. Cells are grown in 96 well plates and exposed to the test compound for 48 hours. Compounds are tested at a single concentration, which is 10^-5 M for most compounds. The reported endpoint is percent growth (GI% or GIPRCNT), where numbers from 0 - 100% represent growth inhibition, and numbers from -100% - 0 represent cell death. For example, a value of 40 represents 60% growth inhibition. […]
About 83,000 compounds went through this panel and 20% of them were active in at least one assay; those are over-represented in the sample as a whole. Active and inactive are the calls of the source. How the source made its calls: active means growth percent below 10; inactive means the rest.
Outcome codes: y for active, n for inactive

# COMPOUND, SYSTEM, DISCRETE_LABEL
measured = [
    ("CCOC(=O)c1nn(C2CCCCO2)c2ccc(NC(=O)Cn3nnc4ccccc43)cc12 (stereo not given)", "SN12C renal", "n"),
    ("COc1cc(NCc2ccccc2O)c2ncccc2c1", "SN12C renal", "n"),
    ("CC1(C)CC(=O)c2c(ccc(C(=O)C[C@@H](N)CO)c2N)O1", "SN12C renal", "n"),
    ("Cc1ccc(S(=O)(=O)Nc2ccccc2)cc1N", "SN12C renal", "n"),
    ("C#C[C@]1(O)CC[C@H]2[C@@H]3CC=C4c5nc(N)sc5CC[C@]4(C)[C@H]3CC[C@@]21C", "SN12C renal", "n"),
    ("c1ccc(-c2n[nH]c(-c3ccccn3)n2)nc1", "SN12C renal", "n"),
    ("CC(C)(C)c1cc(C(=O)Nc2ccccc2C(=O)NCCN)cc(C(C)(C)C)c1", "SN12C renal", "y"),
    ("FC(F)(F)c1ccc2c(c1)Sc1ccccc1N2", "SN12C renal", "n"),
    ("CCOc1ccccc1/C=N\\Nc1ccc(S(=O)(=O)c2ccc(N/N=C/c3ccccc3OCC)cc2)cc1", "SN12C renal", "n"),
    ("CCOC(=O)c1nn(C2CCCCO2)c2ccc(NS(=O)(=O)c3ccc(C)cc3)cc12 (stereo not given)", "SN12C renal", "n"),
]

###

- Tested on: MOLT-4 leukemia
- TEST_DETAILS: NCI-60 one-dose screen, 48 h
- CONDITION_CONTEXT: 10 µM unless noted
The panel holds about 83,000 compounds, 20% with a hit somewhere; the sample as a whole holds those more often. Calls of active or inactive are those of the source. The calls were made as follows: active = growth percent below 10; inactive = the rest.
Classes used: active, inactive

# ITEM_SMILES, DISCRETE_LABEL
data = [
    ("C[C@@H]1C[C@H]2C(=O)O[C@@H](C)[C@H](NC(=O)[C@H](Cc3cc(F)cc(F)c3)NC(=O)Nc3ccc(C4CC4)cc3F)C(=O)N3CCC[C@H]3C(=O)N3CCCC[C@H]3C(=O)N[C@@H](C)C(=O)N2C1", "inactive"),
    ("CCCC[C@@H](C=O)NC(=O)[C@H](CC(C)C)NC(=O)[C@H](CC(C)C)NC(=O)OCc1ccccc1", "active"),
    ("CCN1CCN(CC(=O)Nc2nc3ccc(NCc4ccc(Cl)cc4)cc3s2)CC1", "inactive"),
    ("O=C1COCCN1c1ccc(NCc2cn(Cc3ccc(F)cc3)c3ccccc23)cc1", "inactive"),
]
